Catalogue of Reader value (lateral flow, CF1522-gold) with MMP at 0.5 ug/ml values
target: Indicator molecule containing the cleavable sequence GPQGIFGQ with a terminal biotin group connected via a polyethylene glycol spacer/linker (intact, Examples 1-6)
measurement.name: Reader value (lateral flow, CF1522-gold) with MMP at 0.5 ug/ml (reader units)

protein="MMP12 (Enzo) (protein) GPVWRKHYITYRINNYTPDMNREDVDYAIRKAFQVWSNVTPLKFSKINTGMADILVVFARGAHGDFHAFDGKGGILAHAFGPGSGIGGDAHFDEDEFWTTHSGGTNLFLTAVHEIGHSLGLGHSSDPKAVMFPTYKYVDINTFRLSADDIRGIQSLYG" unit_of_measurement="reader units" reading=1250
protein="MMP7 (Enzo) (protein) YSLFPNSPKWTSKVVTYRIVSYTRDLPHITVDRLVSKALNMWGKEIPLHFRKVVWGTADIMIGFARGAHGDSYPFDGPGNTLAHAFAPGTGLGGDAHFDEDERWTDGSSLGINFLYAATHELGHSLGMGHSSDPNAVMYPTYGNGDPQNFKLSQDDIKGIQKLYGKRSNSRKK" unit_of_measurement="reader units" reading=373
protein="MMP1 (Enzo) (protein) FVLTEGNPRWEQTHLTYRIENYTPDLPRADVDHAIEKAFQLWSNVTPLTFTKVSEGQADIMISFVRGDHRDNSPFDGPGGNLAHAFQPGPGIGGDAHFDEDERWTNNFREYNLHRVAAHELGHSLGLSHSTDIGALMYPSYTFSGDVQLAQDDIDGIQAIYGRSQNPVQP" unit_of_measurement="reader units" reading=478
